% inhibition Apo pol 5' values by entry
subjectOfTest: P. falciparum apicoplast DNA polymerase (Pf-apPOL) (Plasmodium falciparum, UniProt Q8ILY1)
Sequence (Q8ILY1 entry or part of it): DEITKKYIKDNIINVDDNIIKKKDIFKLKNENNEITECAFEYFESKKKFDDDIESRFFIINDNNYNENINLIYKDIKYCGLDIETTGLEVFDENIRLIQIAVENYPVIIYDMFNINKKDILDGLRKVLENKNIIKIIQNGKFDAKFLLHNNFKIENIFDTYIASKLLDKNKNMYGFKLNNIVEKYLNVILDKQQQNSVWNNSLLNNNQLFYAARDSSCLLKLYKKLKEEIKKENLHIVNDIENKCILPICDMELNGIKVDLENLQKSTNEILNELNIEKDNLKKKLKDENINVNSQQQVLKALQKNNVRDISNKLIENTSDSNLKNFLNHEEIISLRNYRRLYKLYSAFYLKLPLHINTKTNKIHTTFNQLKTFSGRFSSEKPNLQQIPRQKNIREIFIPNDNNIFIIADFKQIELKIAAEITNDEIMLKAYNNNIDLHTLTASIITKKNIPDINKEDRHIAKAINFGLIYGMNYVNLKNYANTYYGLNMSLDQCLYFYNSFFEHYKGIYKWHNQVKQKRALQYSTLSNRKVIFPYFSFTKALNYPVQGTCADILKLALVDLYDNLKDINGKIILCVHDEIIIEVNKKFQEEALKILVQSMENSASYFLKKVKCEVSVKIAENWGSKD
assayMethodText: Fluorescence-based high-throughput DNA polymerase assay (molecular beacon), primary screen and dose-response
Assay type: biochemical
runConditions: DRC-2; 5'; conc 20
Write the number in % without appending the unit.

Consider the reported % inhibition Apo pol 5' for these compounds:
compound	subjectOfTest	endpoint	reportedResult
COC(=O)c1sc(-c2ccc(C(C)(C)C)cc2)cc1NC(=O)CCC(=O)O [Molecule 87]	P. falciparum apicoplast DNA polymerase (Pf-apPOL) (Plasmodium falciparum, UniProt Q8ILY1)	% inhibition Apo pol 5'	50
Cc1cccc(C2=N/C(=C\c3ccc([N+](=O)[O-])o3)C(=O)O2)c1 [KU0058960]	P. falciparum apicoplast DNA polymerase (Pf-apPOL) (Plasmodium falciparum, UniProt Q8ILY1)	% inhibition Apo pol 5'	45
O=C1Nc2ccc(I)cc2C1=Cc1cc(Br)c(O)c(Br)c1 [Molecule 27]	P. falciparum apicoplast DNA polymerase (Pf-apPOL) (Plasmodium falciparum, UniProt Q8ILY1)	% inhibition Apo pol 5'	54

[ask] Entry N#CC(C#N)=C1SCN(c2cccc(Cl)c2)CS1 [Molecule 29, N#CC(=C1SCN(CS1)c1cccc(c1)Cl)C#N] , system P. falciparum apicoplast DNA polymerase (Pf-apPOL) (Plasmodium falciparum, UniProt Q8ILY1): what % inhibition Apo pol 5' was measured?
[reply] 55

====

subjectOfTest: bacteriophage T4 DNA polymerase (Enterobacteria phage T4, UniProt P04415)
Construct: made in house
Sequence (P04415 whole entry): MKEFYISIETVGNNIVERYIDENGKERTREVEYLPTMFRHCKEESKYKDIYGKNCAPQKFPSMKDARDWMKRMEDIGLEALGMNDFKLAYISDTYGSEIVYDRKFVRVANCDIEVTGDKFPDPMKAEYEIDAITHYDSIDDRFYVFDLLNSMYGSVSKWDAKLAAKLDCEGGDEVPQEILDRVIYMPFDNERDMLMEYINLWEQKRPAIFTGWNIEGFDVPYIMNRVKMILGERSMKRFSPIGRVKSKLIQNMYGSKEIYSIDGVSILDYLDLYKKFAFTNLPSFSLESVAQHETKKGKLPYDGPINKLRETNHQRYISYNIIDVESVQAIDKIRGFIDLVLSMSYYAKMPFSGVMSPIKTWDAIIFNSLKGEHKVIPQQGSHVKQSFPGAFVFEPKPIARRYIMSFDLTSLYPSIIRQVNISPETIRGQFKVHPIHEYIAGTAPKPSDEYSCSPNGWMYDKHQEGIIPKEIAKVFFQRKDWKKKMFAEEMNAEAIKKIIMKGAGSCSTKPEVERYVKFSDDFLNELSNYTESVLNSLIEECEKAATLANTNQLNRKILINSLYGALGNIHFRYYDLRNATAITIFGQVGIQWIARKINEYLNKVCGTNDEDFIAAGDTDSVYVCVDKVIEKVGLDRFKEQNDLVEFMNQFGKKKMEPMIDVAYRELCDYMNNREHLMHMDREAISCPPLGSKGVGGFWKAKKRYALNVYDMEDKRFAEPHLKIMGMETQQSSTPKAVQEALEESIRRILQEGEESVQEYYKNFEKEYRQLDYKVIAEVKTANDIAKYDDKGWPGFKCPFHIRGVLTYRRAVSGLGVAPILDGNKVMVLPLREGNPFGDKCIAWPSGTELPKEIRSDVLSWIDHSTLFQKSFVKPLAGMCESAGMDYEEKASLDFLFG
assayMethodText: Counter-screen against bacteriophage T4 DNA polymerase
Assay type: biochemical
runConditions: DRC-2; 180'; concentration 20
% inhibition T4 180' values by entry
In your response, put the unit directly after the numeric value.

Consider the reported % inhibition T4 180' for these compounds:
compound	% inhibition T4 180'
CC(=O)c1cc2c(N)c(/C(N)=N/C#N)sc2nc1C [KU0015866]	-23%
O=C1N=C(Nc2cccc(Cl)c2Cl)S/C1=C\c1ccco1 [Molecule 3, O=C1N=C(S/C/1=C\c1ccco1)Nc1cccc(c1Cl)Cl]	27%
O=C(NNC(=O)c1ccc(Cl)cc1)C(=O)NNC(=O)c1ccc(Cl)cc1 [Molecule 25]	-23%

Read the next record carefully.
[ask] Entry COc1cccc(C(=O)N2CCc3c(nc4cc(-c5ccccc5)[nH]n4c3=O)C2)c1OC [Molecule 22] has what % inhibition T4 180'?
[reply] -29%

====

subjectOfTest: P. falciparum apicoplast DNA polymerase (Pf-apPOL) (Plasmodium falciparum, UniProt Q8ILY1)
assayMethodText: Fluorescence-based high-throughput DNA polymerase assay (molecular beacon), primary screen and dose-response;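 on % inhibition Apol 40': compound concentration given in µM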
Assay type: biochemical
runConditions: DRC-2, 40', concentration 5
endpoint: % inhibition Apol 40' (%)
Write the number in % without appending the unit.

molecule	subjectOfTest	reportedResult
CN1CC(=Cc2ccco2)C(=O)C(=Cc2ccco2)C1	P. falciparum apicoplast DNA polymerase (Pf-apPOL) (Plasmodium falciparum, UniProt Q8ILY1)	27
COc1ccc2c(c1)CCc1c-2nc2ccc(Br)cc2c1C(=O)O	P. falciparum apicoplast DNA polymerase (Pf-apPOL) (Plasmodium falciparum, UniProt Q8ILY1)	24
O=C(Nc1nnc(-c2ccno2)o1)c1ccc2ncsc2c1	P. falciparum apicoplast DNA polymerase (Pf-apPOL) (Plasmodium falciparum, UniProt Q8ILY1)	8

[ask] Entry O=[N+]([O-])c1cc2c(cc1CN1CCN(c3cccc(Cl)c3)CC1)OCO2 has what % inhibition Apol 40'?
[reply] 6.48

====

subjectOfTest: P. falciparum apicoplast DNA polymerase (Pf-apPOL) (Plasmodium falciparum, UniProt Q8ILY1)
assayMethodText: Fluorescence-based high-throughput DNA polymerase assay (molecular beacon), primary screen and dose-response
Type: biochemical
runConditions: DRC-2; 5'; concentration 5
If the reported % inhibition Apo pol 5' equals or exceeds 20%, assign true. If not, assign false.

Study these solved cases before continuing.
compound	label
CCCc1ccc(Oc2coc3cc(OC)ccc3c2=O)cc1	false
O=C(Cc1cc(=O)[nH]c(SCc2ccccc2)n1)Nc1ccc2c(c1)OCO2	false
Cc1nc(C)c2c(n1)N(CC1CCCCC1)C(=O)CC2	true
COC(=O)c1sc(-c2ccc(C(C)(C)C)cc2)cc1NC(=O)CCC(=O)O	false

[ask] # bool: % inhibition Apo pol 5' of Cc1nc(/N=N/c2ccc(C(=O)[O-])cc2)c(COP(=O)([O-])[O-])c(C=O)c1O.[Na+].[Na+].[Na+] >= 20%
[reply] true

[ask] What do we get for O=C1N=C(Nc2cccc(Cl)c2Cl)S/C1=C\c1ccco1 [Molecule 3, O=C1N=C(S/C/1=C\c1ccco1)Nc1cccc(c1Cl)Cl] ?
[reply] true

[ask] What do we get for O=C(CSc1nnc(-c2ccco2)[nH]1)c1ccc(Cl)cc1 ?
[reply] false

[ask] What do we get for CC(C)(C)c1cc(C(=O)C(C#N)=NNc2cccc(Cl)c2)no1 ?
[reply] false

[ask] What do we get for COc1ccc2c(c1)C(c1ccccc1OC)CC(=O)O2 (centres unmarked) ?
[reply] true

[ask] What do we get for Cc1ccccc1NC(=O)Cn1ccc2c(=O)[nH]ccc21 [Molecule 50, O=C(Cn1ccc2c1cc[nH]c2=O)Nc1ccc(cc1)C] ?
[reply] false

[ask] What do we get for CS(=O)(=O)c1cccc(C(=O)Nc2nnc(-c3ccno3)o2)c1 ?
[reply] false

[ask] What do we get for O=C(NCC1CCN(C2CCCC2)CC1)C(=O)NC1CCCC1 ?
[reply] false

[ask] What do we get for Cc1ccc(NC(=O)Cn2ccc3c(=O)[nH]ccc32)cc1F [Molecule 48, O=C(Cn1ccc2c1cc[nH]c2=O)Nc1ccc(c(c1)F)C] ?
[reply] false

====

% inhibition apPOL 180' values by entry
subjectOfTest: P. falciparum apicoplast DNA polymerase (Pf-apPOL) (Plasmodium falciparum, UniProt Q8ILY1)
assayMethodText: Fluorescence-based high-throughput DNA polymerase assay (molecular beacon), primary screen and dose-response;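 on % inhibition apPOL 180': test concentration in µM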
Type: biochemical
runConditions: DRC-1; 180'; concentration 20
In your response, put the unit directly after the numeric value.

Consider the reported % inhibition apPOL 180' for these compounds:
compound	endpoint	reportedResult
O=C(Nc1ncc([N+](=O)[O-])s1)c1ccc2c(c1)C(=O)N(N1C(=O)c3ccccc3C1=O)C2=O	% inhibition apPOL 180'	24.5599%
O=C(NNC(=O)C(F)(F)Sc1ccccc1)c1ccsc1 [Molecule 68, O=C(C(Sc1ccccc1)(F)F)NNC(=O)c1cscc1]	% inhibition apPOL 180'	13.4425%
COc1cc(NC(=O)c2ccccc2)c(OC)cc1NC(=O)Cc1cccs1	% inhibition apPOL 180'	39.9313%
O=C(c1c[nH]c2ncccc12)N1CCCC1 [Molecule 63, O=C(c1c[nH]c2c1cccn2)N1CCCC1]	% inhibition apPOL 180'	25.4337%
O=C1NCCCn2cc(S(=O)(=O)Nc3ccccc3)cc21	% inhibition apPOL 180'	8.277%

[ask] Entry O=C(Nc1nnc(-c2ccno2)o1)c1ccc2c(c1)OCO2 has what % inhibition apPOL 180'?
[reply] -7.297%

[ask] What do we get for Oc1ccc(N=Nc2ccccc2)c(O)c1 ?
[reply] 3.639%

[ask] What do we get for Cn1nc(C(=O)N2CCc3c(nc4cc(-c5ccccc5)[nH]n4c3=O)C2)c2ccccc21 ?
[reply] 39%

====

% inhibition Apo pol 5' values by entry
subjectOfTest: P. falciparum apicoplast DNA polymerase (Pf-apPOL) (Plasmodium falciparum, UniProt Q8ILY1)
assayMethodText: Fluorescence-based high-throughput DNA polymerase assay (molecular beacon), primary screen and dose-response
Format: biochemical
runConditions: DRC-2; 5'; concentration 2.5
Write the number in % without appending the unit.

Consider the reported % inhibition Apo pol 5' for these compounds:
compound	resultUnit	% inhibition Apo pol 5'
Cc1ccc(NC(=O)Cn2ccc3c(=O)[nH]ccc32)cc1F [Molecule 48, O=C(Cn1ccc2c1cc[nH]c2=O)Nc1ccc(c(c1)F)C]	%	-5.29
CC1(C)CC(=O)C2=C(C1)OC1=C(C(=O)CC(C)(C)C1)C2c1ccc(O)cc1 [KU0194226]	%	2.55

[ask] Entry Cc1nc(/N=N/c2ccc(C(=O)[O-])cc2)c(COP(=O)([O-])[O-])c(C=O)c1O.[Na+].[Na+].[Na+] [KU0261395] has what % inhibition Apo pol 5'?
[reply] 42

[ask] What do we get for O=C(CSc1nnc(-c2ccco2)[nH]1)c1ccc(Cl)cc1 [KU0029065] ?
[reply] -0.174

[ask] What do we get for Cc1ccc(C)n1-c1ccc(C(=O)NNC(=O)c2ccc3nccnc3c2)cc1 [Molecule 53] ?
[reply] 0

====

subjectOfTest: P. falciparum apicoplast DNA polymerase (Pf-apPOL) (Plasmodium falciparum)
assayMethodText: Fluorescence-based high-throughput DNA polymerase assay (molecular beacon), primary screen and dose-response
Format: biochemical
runConditions: DRC-2; 5'; concentration 80
If the reported % inhibition Apo pol 5' equals or exceeds 40%, assign TRUE. If not, assign FALSE.

molecule	subjectOfTest	label
COc1cc(Cl)c(C)cc1NC(=O)Cn1ccc2c(=O)[nH]ccc21 [Molecule 33]	P. falciparum apicoplast DNA polymerase (Pf-apPOL) (Plasmodium falciparum)	FALSE

// switching to the query molecule
[ask] # bool: % inhibition Apo pol 5' of Nc1c(S(=O)(=O)O)cc(Nc2ccccc2)c2c1C(=O)c1ccccc1C2=O [KU0045407] >= 40%
[reply] TRUE

Every entry's value here was drawn from paper PMC9090415.
